target: neuronal nicotinic cholinergic channel receptors; assay: [3H]-cytisine displacement binding to neuronal nicotinic cholinergic channel receptors; type: rat (crude synaptic membranes from whole rat brain); settings: read-out: Receptor Binding Ki
Counter-ions that a name gives are not always drawn.
Outcome measure: pKi
One number for each entry, as −log10 of the molar value.

Example results:
* c1cncc(OC[C@H]2CCCN2)c1 [Example 2, dihydrochloride] | 9.77
* Cc1ncccc1OC[C@@H]1CCN1 [Example 29, dihydrochloride] | 8.89
* CN1CC[C@H]1COc1cccnc1.Cl.Cl [Example 10, dihydrochloride] | 9.60
* CN1CCC[C@H]1COc1cccnc1.O=C(O)/C=C/C(=O)O [Example 4, fumarate] | 9.70
* CC(Oc1cccnc1)[C@@H]1CCCN1C (stereo partly drawn) [Example 6, hydrochloride] | 8.17
* Cc1ccncc1OC[C@@H]1CCCN1 [Example 27, dihydrochloride] | 8.24
* O=C(O)/C=C/C(=O)O.c1cncc(OC[C@@H]2CCCN2)c1 [Example 14, fumarate] | 9.85
* Cc1ccc(OC[C@H]2CCCN2C)cn1 [Example 36, dihydrochloride] | 7.59

Lab note: next compound to report on.
Summary for this compound, CN1CCC[C@@H]1COc1cncc(Cl)c1 [Example 34, dihydrochloride] : pKi is 7.96
